- System: K3a,eRh2 coiled coil
- Sequence (as listed by the source): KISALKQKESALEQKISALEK
- procedureText: Thermal denaturation of metallopeptide coiled coils monitored by CD
- Assay type: physicochemical
- conditionsUsed: equimolar mixture of E3X peptide and K3a,eRh2 in aq buffer, CD 222 nm
Where no end group is shown, it is not given here.
Quick reference: melting temperature (Tm) of coiled coil of the listed items.
Provide the reading as a plain figure in °C.

{"substance": "E3gE: E3 coil peptide with glutamate at position g (Ac-EISALEKEISALEQEISALEK)", "melting temperature (Tm) of coiled coil (°C)": 50.2}
{"substance": "E3gF: E3 coil control peptide with non-coordinating phenylalanine at position g (Ac-EISALEKFISALEQEISALEK) [reference compound]", "melting temperature (Tm) of coiled coil (°C)": 39.5}

Q. If you can, please state the reported melting temperature (Tm) of coiled coil value of E3cH: E3 coil peptide with histidine moved to position c (Ac-EISALEKEISHLEQEISALEK) .
A. 47.0

====

- experimentalTarget: CALP (Homo sapiens, UniProt Q9HD26)
- Construct: Western blot of native CAL was captured from epithelial lysates; endogenous in cells; host or cells: CFBE41o- epithelial cell lysate
- procedureText: Ki (μM)
pKi: −log10 of the molar value.
measuredParameter: pKi

Q. If you can, please state the reported pKi value of Ac-QLDVTR-OH [QLDVTR] .
A. < 3.30

====

Quick reference: Ki of the listed items.
- experimentalTarget: CALP (Homo sapiens)
- Construct: Western blot of native CAL was captured from epithelial lysates; endogenous in cells; host or cells: CFBE41o- epithelial cell lysate
- procedureText: CALP affinity (uM)

{"substance": "Ac-EVQSTRF-OH [E^RhVQSTRF]", "result": "> 15 µM"}

// switching to the query substance
Q. If you can, please state the reported Ki value of Ac-EVQSTRF-OH [EVQSTRF] .
A. > 1000 µM

====

- experimentalTarget: N1P1
- procedureText: N1P1 affinity (uM)
Quick reference: Ki of the listed items.

Before answering, review these 2 worked examples.
{"compound": "CC[C@H](C)[C@H](NC(=O)[C@@H](NC(=O)[C@H](CO)NC(=O)[C@@H](NC(=O)[C@@H]1CCCN1C(=O)[C@H](Cc1c[nH]c2ccccc12)NC(=O)[C@H](CCC(=O)O)NC(C)=O)[C@@H](C)O)[C@@H](C)CC)C(=O)O [EWPTSII]", "result": "> 500 µM"}
{"compound": "CC[C@H](C)[C@H](NC(=O)[C@@H](NC(=O)[C@H](CO)NC(=O)[C@@H](NC(=O)[C@@H]1CCCN1C(=O)[C@H](Cc1c[nH]c2ccccc12)NC(=O)[C@H](CCC(=O)O)NC(C)=O)[C@@H](C)O)[C@@H](C)CC)C(=O)O [E^RhWPTSII]", "result": "> 50 µM"}

// switching to the query compound
Q. Find the measured Ki: item "CC(=O)N[C@H](C(=O)N[C@@H](CCC(N)=O)C(=O)N[C@@H](CC(=O)O)C(=O)N[C@H](C(=O)N[C@@H](CCCNC(=N)N)C(=O)N[C@@H](CC(C)C)C(=O)O)[C@@H](C)O)C(C)C" , target or system N1P1.
A. 0.7 µM
